# reported pIC50; entries follow
measured target: cdk1/cyclin B (Homo sapiens, UniProt P06493)
Sequence (P06493 whole entry): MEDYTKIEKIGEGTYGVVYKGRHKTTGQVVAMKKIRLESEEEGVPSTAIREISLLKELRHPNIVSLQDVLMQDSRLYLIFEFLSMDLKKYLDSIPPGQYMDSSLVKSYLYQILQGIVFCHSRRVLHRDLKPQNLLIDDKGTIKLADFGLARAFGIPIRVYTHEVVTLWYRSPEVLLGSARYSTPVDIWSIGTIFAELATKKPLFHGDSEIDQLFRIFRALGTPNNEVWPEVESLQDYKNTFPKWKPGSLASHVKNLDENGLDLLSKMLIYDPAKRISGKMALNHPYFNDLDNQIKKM
Sequence (P14635 whole entry partner): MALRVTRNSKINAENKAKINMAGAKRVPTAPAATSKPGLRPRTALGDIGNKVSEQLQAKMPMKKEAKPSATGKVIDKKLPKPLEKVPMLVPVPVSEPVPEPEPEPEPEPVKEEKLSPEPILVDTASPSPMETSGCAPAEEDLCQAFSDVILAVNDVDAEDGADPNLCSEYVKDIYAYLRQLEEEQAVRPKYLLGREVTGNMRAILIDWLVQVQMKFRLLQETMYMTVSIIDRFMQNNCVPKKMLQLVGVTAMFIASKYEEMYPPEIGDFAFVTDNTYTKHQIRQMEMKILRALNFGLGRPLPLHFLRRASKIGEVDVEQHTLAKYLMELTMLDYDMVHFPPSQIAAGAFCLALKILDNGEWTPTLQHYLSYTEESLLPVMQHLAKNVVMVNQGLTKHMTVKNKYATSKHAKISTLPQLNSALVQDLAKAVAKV
test method notes: Cyclin-dependent kinase assay, cdk1/cyclin B (Histone H1 substrate)
Counter-ions that a name gives are not always drawn.
Scale: negative log10 of molar concentration, which is what pIC50 denotes.

Prompt line: Which measured pIC50 value corresponds to CC(C)=CC(=O)N1CCC(Nc2nc(N[C@H]3CC[C@H](N)CC3)nc3c2ncn3C2CCCC2)CC1 [Compound 30, dihydrochloride] ?
Response line: 7.60

Prompt line: Which measured pIC50 value corresponds to N[C@H]1CC[C@H](Nc2nc(NC3CCN(C(=O)/C=C/c4cccc(C(F)(F)F)c4)CC3)c3ncn(C4CCCC4)c3n2)CC1 [Compound 44, dihydrochloride] ?
Response line: 6.89

Prompt line: Which measured pIC50 value corresponds to N[C@H]1CC[C@H](Nc2nc(NC3CCN(S(=O)(=O)c4cccs4)CC3)c3ncn(C4CCCC4)c3n2)CC1 [Compound 128, dihydrochloride] ?
Response line: 8.05
